target-or-system: SARS-CoV-2 spike protein receptor binding domain (RBD2) (SARS-CoV-2, UniProt P0DTC2 319-537)
protocol: SPR sandwich binning, ligand H01
So I've got a bunch of binders here, and I need their normalized analyte binding to RBD2 held by the immobilized ligand values.
Give your answer as a number; write no unit.

Task: # input binder: F07 IgG1 (antibody, V domains shown) VH: QVQLVQSGAEVKKPGSSVRVSCKVSGYTFTGYYMHWVRQAPGQGLEWMGIINPSGGSTSYAQKFQGRVTMTRDTSTSTVYMELSSLRSEDTAVYYCARVRVGASDAFDIWGQGTMVTVSS VL: SYVLTQPPSVSVAPGQTARITCGGNNIGSKSVHWYQQKPGQAPVLVVYDDSDRPSGIPERFSGSNSGNTATLIISRVEAGDEADYYCQVWDSSSVHYVFGTGTKLTVL ; wanted: its normalized analyte binding to RBD2 held by the immobilized ligand
Output: 0.1

Task: # input binder: H05 IgG1 (antibody, V domains shown, also called H5; HO5) VH: QVQLVQSGAEVKKPGSSVKVSCKASGGTFSSYAISWVRQAPGQGLEWMGGIIPIFGTANYAQKFQGRVTITADESTSTAYMELSSLRSEDTAVYYCARSIFGVVIISHADGYYYGMDVWGQGTTVTVSS VL: SYVLTQPPSVSVAPGQTARITCGANNIGRISVHWYQQKPGQAPVLVVYDDSDRPSGIPERFSGSNFGNTATLTISRVEAGDEADYYCQVWDSYSDHVIFGGGTKLTVL ; wanted: its normalized analyte binding to RBD2 held by the immobilized ligand
Output: -0.1

Task: # input binder: H01 IgG1 (antibody, V domains shown, also called H1) VH: QVTLKESGPVLVKPTETLTLTCTVSGFSLSNARMGVSWIRQPPGKALEWLAHIFSNGEKSYSTSLKSRLTISKDTSKSQVVLTMTNMDPVDTATYYCARTLDYYDSSGYLVGGAFDIWGQGTMVTVSS VL: QPGLTQPPSVSLAPGQTARITCGGNNIGSKSVHWYQQKPGQAPVLVVYDDSDRPSGIPERFSGSNAGNTATLTISRVEAGDEADYYCQVWDSRSDQYVFGTRTKLTVL ; wanted: its normalized analyte binding to RBD2 held by the immobilized ligand
Output: -0.03

Task: # input binder: S01 IgG1 (antibody, V domains shown, also called 501) VH: QVQLVESGGGLVKPGGSLRLSCAASGFTVGSNYMSWVRQAPGKGLEWVSVIYSGGSTYYADSVKGRFTISRDNSKNTLYLQMNSLRAEDTAVYYCARGSSGAWYFDLWGRGTLVTVSS VL: EIVMTQSPSSLSASVGDSVTITCQASQDISNYLNWYQQKPGKAPKLLIYDASNLETGVPSRFSGGGSGTDFTLTITSLQPEDIATYYCQQYDNFPPTFGPGTKVDIK ; wanted: its normalized analyte binding to RBD2 held by the immobilized ligand
Output: -0.03

Task: # input binder: B04 IgG1 (antibody, V domains shown) VH: QVQLVESGAEVKKPGASVKVSCKASGYTFTRYYMHWVRQAPGQGLEWMGIINPSGGTTSYAQKFQGRVTMTRDTSTSTVYMELSSLRSEDTAVYYCARSFGELTSFDYWGQGTLVTVSS VL: SYVLTQPPSVSVAPGKTARITCGGNNIGIRSVHWYQQKPGQAPVLVIYYDSDRPSGIPERFSGSKSGNTATLTISRVEAGDEADYYCQVWDSSSDHPVFGGGTKLTVL ; wanted: its normalized analyte binding to RBD2 held by the immobilized ligand
Output: 0.71

Task: # input binder: G07 IgG1 (antibody, V domains shown) VH: QVQLVQSGAEVKKPGESLKISCKGSGYSFTSYWIGWVRQMPGKGLEWMGIIYPGDSDIRYSPSFQGQVTISADKSFSSAYLQWSSLKASDTAMYYCARLGATGAFDIWGQGTTVTVSS VL: QSVLIQPPSASGTPGQRVTISCSGSNSNFGSNSVSWYQQRPGTAPKLLIEGNNQRPSGVPERFSGSKSGTSASLAISGLQSEDEAEYSCASWDDSLNAFVFGPGTKLTVL ; wanted: its normalized analyte binding to RBD2 held by the immobilized ligand
Output: 0.94
